assay: gradient 5% acetonitrile 3 min, to 50% in 2 min, to 85% in 15 min, held 3 min, 100 µL/min; conditions: column: Zorbax Extend-C18 2.1 x 50 mm; eluents: water / acetonitrile, 0.1% formic acid
Task for the reader: assign each of the following compounds its reported RP-LC retention time.
Numbers only, in s.

Solved cases (4 shown):
CC(C)(C)NC(=O)CN1C(=O)C2CCCCN2c2ccc(S(=O)(=O)N3CCCCC3)cc21 (stereo not drawn)    981
Cc1nn(CC(=O)N2CCN(c3ccccc3)CC2)c(=O)c2nc(-c3ccccc3)sc12    924
COc1cccc(CNC(=O)Cn2c(=O)cc(-c3nc(C(C)C)no3)c3ccccc32)c1    944
CC1CCN(c2nc3c(c(=O)n(C)c(=O)n3C)n2Cc2ccccc2F)CC1    1090

For every item in the list below, what is its measured RP-LC retention time?
1. CN(C)c1ncncc1N1CCC(C(=O)NCC2CCCO2)CC1 (stereo not drawn)
2. O=C(NCc1ccco1)C1CCCN(c2ncccc2-c2noc(C3CCC3)n2)C1 (stereo not drawn)
3. Cc1nc(-c2cn(C(C)C)c3ncccc23)sc1C(=O)Nc1ccc2c(c1)OCO2

Output:
1: 566; 2: 872; 3: 998

Task: RP-LC retention time for Cc1cccc(NC(=O)Cn2ccc3sccc3c2=O)c1 ?
Output: 701
